Molecular target: T1, murine HVEM (murine, UniProt Q80WM9 39-206, limits assumed); note: test concentration or dose not given here
T1 construct: also called Mouse
T1 sequence (looked up): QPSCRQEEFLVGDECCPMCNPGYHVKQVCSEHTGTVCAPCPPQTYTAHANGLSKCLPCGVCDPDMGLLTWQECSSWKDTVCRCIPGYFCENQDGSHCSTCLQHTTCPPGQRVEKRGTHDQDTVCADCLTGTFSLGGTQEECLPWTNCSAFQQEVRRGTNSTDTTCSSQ
Assay: ELISA
The following binders are shown together with reported ELISA signal values.

Solved entries (count: 2):
Ab_023 (H5S14-27A23A) (antibody, V domains shown, also called Ab_23) VH: EVKLDETGGGLVQPGRPMKLSCVASGFTFSDYWMNWVRQSPEKGLEWVAQIRNKPYNYETYYSDSVKGRFTISRDDSKSSVYLQMNNLRAEDMGIYYCTWGNYWGQGTTLTVSS VL: DIKMTQSPSSMYASLGERVTITCKASQDINSYLSWFQQKPGKSPKTLIYRANRLVDGVPSRFSGSGSGQDYSLTISSLEYEDMGIYYCLQYDEFPWTFGGGTKLEIK    0.042
Ab_056 (H5S19-11A9B) (antibody, V domains shown, also called Ab_56) VH: DVQLQESGPGLVNPSQSLSLTCTVTGYSITSDYAWNWIRQFPGNKLEWMGYISYSGNTGYNPSLKSRISITRDTSKNQFFLQLNSVTSEDTATYYCARWGLRIDYWGQGTTLTVSS VL: DIKMTQSPSSMYASLGESVTITCKASQDINSYLSWFQQKPGKSPKTLIYRANRLVDGVPSRFSGSGSGQDYSLTISSLEFEDMGIYYCLQYDEFPFTFGSGTKLEMK    0.043

Proceed to the following item.
Query: In one line, give reported ELISA signal of the entry Ab_076 (H5S20-26A22A) (antibody, V domains shown, also called Ab_76) VH: QIQLVQSGPELKKPGETVKISCRASGYTFTNYGMNWVKQAPGKGLKWMGWINTYTGEPTYADDFKGRFAFSLETSASSAYLQINNLKNEDMATYFCARSLYYGDNYEAYWGQGTLVTVSA VL: QIVLTQSPAIMSASLGEEITLTCSASSSVSYMHWYQQKSGSSPKLLIYTTSNLASGVPSRFSGSGSGTFYSLTISSVEAEDAADYYCHQWSSYTWTFGGGTKLEIK .
Result: 0.044
